test: Tmax in po dosed rat; format: ADME, organism-based; conditions: in vivo
observation.type: Tmax (h)
The answer is to be given in h; state only the numeric part.

Q: Recorded Tmax of O=C(O)c1ccc(-c2cc3cccnc3c(-c3ccc4nonc4c3)n2)cc1 , please.
Ans: 3.5

----------
assay: Cmax in ferret at 3.42 umol/kg, ig; type: ADME, organism-based, Mustela putorius furo; parameters: dose 3.42 umol/kg, route intragastric; conditions: in vivo, po
observation.type: Cmax (µM)
The answer is to be given in µM; state only the numeric part.

{"record.smiles": "O=C(O)[C@H]1CC[C@H](c2cc3cccnc3c(-c3cccc(F)c3)n2)CC1", "result.value": 12.3}

Q: Recorded Cmax of O=C(O)[C@H]1CC[C@H](c2cc3cccnc3c(-c3cccc(OC(F)(F)F)c3)n2)CC1 , please.
Ans: 10.5
